Data origin, for the record: patent US20250236600A1

tested on: RPMI 8226 cells; test: Sulforhodamine B (SRB) cell viability assay, RPMI 8226; type: cell-based, Human; conditions: Homo sapiens; RPMI 8226, SRB assay, 24 hours
Quantity name: IC20 (µM)
Write it as a number; the unit µM goes unstated.

C/C(=C\CN1CCN(C(=O)Nc2ccc(C)cc2)CC1)c1ccc2ccccc2c1 [Compound 28] = 7.1
C/C(=C\CN1CCN(C(=O)NC2CCCCC2)CC1)c1ccc2ccccc2c1 [Compound 27] = 9.5

Req: What IC20 value was documented for this compound, COc1ccc2cc(/C(C)=C/CN3CCN(C(=O)Nc4ccc(C(F)(F)F)cc4)CC3)ccc2c1 [Compound 29] ?
Resp: 8.1

Req: Also C/C(=C\CN1CCN(C(=O)NC2CCCC2)CC1)c1ccc2ccccc2c1 [Compound 26] ?
Resp: 22.6

Req: Also COc1ccc2cc(/C(C)=C/CN3CCN(C(=O)Nc4c(F)cccc4F)CC3)ccc2c1 [Compound 30] ?
Resp: 7.3
